- ASSAY_REMARKS: Inhibition of LTB4 production in calcium ionophore A23187 treated human leukocytes
- Assay type: functional, cell-based
- CONDITION_SUMMARY: Leukocyte
pIC50: −log10 of the molar value.
Label no if pIC50 falls below 7; label yes in every other case.

# COMPOUND, CLASS_LABEL
rows = [
    ("CC(C)(C)Sc1c(CC(C)(C)C(=O)O)n(Cc2ccc(Cl)cc2)c2ccc(OC[C@@H]3Cc4ccccc4N3)cc12", "yes"),
    ("CC(C)(C)Sc1c(CC(C)(C)C(=O)O)n(Cc2ccc(Cl)cc2)c2ccc(OCC(O)c3ccc(F)cc3)cc12 (stereo not drawn)", "yes"),
    ("CC(C)(C)OC(=O)N1CCC[C@@H]1COc1ccc2c(c1)c(SC(C)(C)C)c(CC(C)(C)C(=O)O)n2Cc1ccc(Cl)cc1", "no"),
    ("CC(=O)N1c2ccccc2C[C@H]1COc1ccc2c(c1)c([S+]([O-])C(C)(C)C)c(CC(C)(C)C(=O)O)n2Cc1ccc(Cl)cc1 (stereo partly drawn)", "no"),
    ("CC(C)(C)OC(=O)N1CCC[C@H]1COc1ccc2c(c1)c(SC(C)(C)C)c(CC(C)(C)C(=O)O)n2Cc1ccc(Cl)cc1", "yes"),
]

Now for a further compound.
Is reported pIC50 greater than or equal to 7 here: CC(=O)N1c2ccccc2C[C@H]1COc1ccc2c(c1)c(SC(C)(C)C)c(CC(C)(C)C(=O)O)n2Cc1ccc(-c2ccc(F)cn2)cc1
yes

* * *

Kindly supply the reported Cmax values for the records listed here.
- ASSAY_REMARKS: Cmax in rat at 10 mg/kg, po
- Type: ADME, organism-based
- Set-up: dose 10 mg/kg, route oral
- CONDITION_SUMMARY: in vivo
One number for each entry, in nM.

Study these solved cases before continuing.
# COMPOUND_STRUCTURE_STRING, Cmax, nM
rows = [
    ("CC(=O)N1c2ccccc2C[C@H]1COc1ccc2c(c1)c(C(=O)C(C)(C)C)c(CC(C)(C)C(=O)[O-])n2Cc1ccc(Cl)cc1.[Na+]", 270),
    ("COc1cnc(-c2ccc(Cn3c(CC(C)(C)C(=O)O)c(SC(C)(C)C)c4cc(OC[C@@H]5Cc6ccccc6N5C(C)=O)ccc43)cc2)nc1", 1600),
]

Here is the next item to consider.
Quick one: Cmax for CC(=O)N1c2ccccc2C[C@H]1COc1ccc2c(c1)c(SC(C)(C)C)c(CC(C)(C)C(=O)O)n2Cc1ccc(Cl)cc1 ?
270

* * *

- TEST_SYSTEM: Arachidonate 5-lipoxygenase-activating protein (Homo sapiens, UniProt P20292)
- Sequence (P20292 whole entry): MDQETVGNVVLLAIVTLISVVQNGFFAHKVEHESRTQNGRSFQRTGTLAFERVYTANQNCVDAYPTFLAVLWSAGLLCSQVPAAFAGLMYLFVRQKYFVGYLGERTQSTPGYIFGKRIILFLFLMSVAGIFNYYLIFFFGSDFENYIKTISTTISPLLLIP
- ASSAY_REMARKS: Binding affinity to FLAP in human PMN derived membrane
Please provide measured pIC50 for the entries that follow.
One number for each entry, as −log10 of the molar value.

Working through the 4 molecules below one at a time, give pIC50 for each.
1. CC(=O)N1c2ccccc2C[C@H]1COc1ccc2c(c1)c(C(=O)C(C)C)c(CC(C)(C)C(=O)O)n2Cc1ccc(Cl)cc1
2. CC(C)(C)OC(=O)N1CCC[C@@H]1COc1ccc2c(c1)c(SC(C)(C)C)c(CC(C)(C)C(=O)O)n2Cc1ccc(Cl)cc1
3. CC(C)(C)Sc1c(CC(C)(C)C(=O)O)n(Cc2ccc(Cl)cc2)c2ccc(OC[C@@H]3CCC(=O)N3)cc12
4. CCC(=O)N1CCC[C@H]1COc1ccc2c(c1)c(SC(C)(C)C)c(CC(C)(C)C(=O)O)n2Cc1ccc(Cl)cc1

[7.69, 5.74, 6.21, 8.40]
